The reported measurements were obtained from patent US12377601B2.

- assay-procedure: Solubility of the active component in Japanese Pharmacopoeia dissolution test fluids
- Assay type: physicochemical
- assay-context: dissolution test 2nd fluid of the Japanese Pharmacopoeia, pH 6.8, aqueous buffer; read-out: solubility to a dissolution test 2nd fluid of the Japanese Pharmacopoeia

| smiles-code | measurement-unit | solubility |
| --- | --- | --- |
| O=C(/C=C/c1ccc(Cl)cc1)N[C@@H](Cc1ccccn1)C(=O)NCC(=O)N1CCC(Oc2cc(C(F)(F)F)ncn2)CC1 | µM | 23.2 |
